# TEST SUMMARY: galactose survival enhancers in mitochondrial complex I cybrids – cell-based, galactose medium, ATP luminescence, primary screen (AID 1645843);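 also: positive z means more ATP and so rescue of galactose-driven cybrid death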
# COND: complex I mutant cybrid cells, 72 h, hits give high values
Classify as follows. Reported z-score greater than or equal to -0.04: yes (1). Reported z-score below: no (0).

>>> answer_label("O=C(Nc1c(-c2cccs2)nc2ccccn12)c1ccc(Cl)cc1")
"yes (1)"
>>> answer_label("Cc1nn(-c2ccccc2)c(C)c1/C=N/N1CCN(Cc2ccccc2)CC1")
"no (0)"
>>> answer_label("CCS(=O)(=O)N(C)[C@H]1c2cc(C#N)ccc2OC(C)(C)[C@@H]1O")
"yes (1)"
>>> answer_label("NC(Cn1ccc(=O)n(Cc2ccccc2C(=O)O)c1=O)C(=O)O (configuration not stated)")
"yes (1)"
>>> answer_label("O=C(NCCCN1CCCCCC1)C(c1ccccc1)C1CCCCC1 (configuration not stated)")
"no (0)"
>>> answer_label("COc1ccccc1N1CCN(CCN(C(=O)C2CCCCC2)c2ccccn2)CC1")
"no (0)"
>>> answer_label("COc1[nH]c2ccc(F)cc2c1C(=O)OCC1CCN(CCNS(C)(=O)=O)CC1")
"no (0)"
>>> answer_label("Cc1nc2c(O)cccc2c(=O)[nH]1")
"no (0)"
>>> answer_label("N[C@@H](C(=O)O)[C@@H](OCc1ccccc1)C(=O)O (racemic)")
"yes (1)"
>>> answer_label("CC(O)C1C(=O)N2C(C(=O)O)=C(SC3CNC(C(=O)N(C)C)C3)C(C)C12 (configuration not stated)")
"yes (1)"
>>> answer_label("COc1ccc(CC(=O)NC(/N=C(\\NC#N)Nc2cccc3ncccc23)C(C)(C)C)cc1OC (configuration not stated)")
"yes (1)"
>>> answer_label("CCCCOC(=O)c1cc2c(cn1)[nH]c1ccccc12")
"yes (1)"
>>> answer_label("O=C(c1ccc2c(c1)OCO2)N1CCCCC1")
"no (0)"
>>> answer_label("CN(C)CCCCSC(=N)N")
"yes (1)"
>>> answer_label("CC(=O)N[C@H](Cc1c[nH]c2ccccc12)C(=O)OCc1cc(C(F)(F)F)cc(C(F)(F)F)c1")
"yes (1)"
>>> answer_label("CCCc1c(OCCCOc2ccc(OCC(=O)O)cc2)ccc(C(C)=O)c1O")
"yes (1)"
>>> answer_label("CCCCc1nn(-c2ccccc2C(F)(F)F)c(=O)n1Cc1ccc(-c2ccccc2S(=O)(=O)NC(=O)c2sccc2C)cc1")
"yes (1)"
>>> answer_label("O=[N+]([O-])c1cccc2c[nH]nc12")
"no (0)"
>>> answer_label("CCn1c(=O)[nH]c2ccccc21")
"no (0)"
>>> answer_label("c1cc2c(cc1C1CCCCC1)c1c3n2CCNC3CCC1 (configuration not stated)")
"no (0)"
>>> answer_label("CNC(=O)[C@H]1O[C@@H](n2cnc3c(NCc4cccc(I)c4)ncnc32)[C@H](O)[C@@H]1O")
"yes (1)"
>>> answer_label("O=C(COc1cccc2c(=O)[nH]ccc12)c1ccccc1")
"no (0)"
